- System: E. coli TESEC Mtb Alr
- ASSAY METHOD TEXT: growth (OD600 after 10 h); higher = more growth (less inhibition)
- MEASUREMENT PARAMETERS: arabinose 100000 nM; compound 0.1 mM; raw OD600 reference: median of DMSO wells 0.201, cell-free background 0.041
Counter-ions that a name gives are not always drawn.
growth values, listed per item
The response must contain the number and no unit.

// worked examples, growth included
>>> value_observed("CC(=O)[C@H]1CC[C@H]2[C@@H]3CCC4=CC(=O)CC[C@]4(C)[C@H]3CC[C@]12C [Progesterone]")
0.145
>>> value_observed("COc1ccc(/C=C/C(=O)Nc2ccccc2C(=O)O)cc1OC [Tranilast]")
0.134
>>> value_observed("COc1ccccc1Oc1c(NS(=O)(=O)c2ccc(C(C)(C)C)cc2)nc(-c2ncccn2)nc1OCCO [Bosentan]")
0.276
>>> value_observed("COc1cc([C@@H]2c3cc4c(cc3[C@@H](O[C@@H]3O[C@@H]5CO[C@@H](C)O[C@H]5[C@H](O)[C@H]3O)[C@H]3COC(=O)[C@H]23)OCO4)cc(OC)c1O [Etoposide]")
0.0604

Reported growth of C[C@@H]1CCC[C@H](C)N1NC(=O)c1ccc(Cl)c(S(N)(=O)=O)c1 [Clopamide] : 0.217

Memo: CCOC(=O)N1CCC(=C2c3ccc(Cl)cc3CCc3cccnc32)CC1 [Loratadine] , reported growth: 0.173

Documented growth of CCCOc1ccc2[nH]c(NC(=O)OC)nc2c1 [Oxibendazol] : 0.213

COC(=O)[C@H]1[C@H]2C[C@@H]3c4[nH]c5cc(OC)ccc5c4CCN3C[C@H]2C[C@@H](OC(=O)c2cc(OC)c(OC)c(OC)c2)[C@@H]1OC [Reserpine] has a reported growth of 0.214

growth in this record for CC(C)Cc1ccc([C@H](C)C(=O)O)cc1 [S-(+)-ibuprofen] : 0.166

The molecule listed as COc1cc(OC)c(C(=O)CCCN2CCCC2)c(OC)c1 [Buflomedil hydrochloride] has a reported growth of 0.201
